assay: qHTS Validation assay for Inhibitors of Plasmodium falciparum Dd2 growth in vitro; note: nearly all actives have a fitted effect of over 70% in size; details: P. falciparum Dd2 in RBCs, SYBR Green growth, 72 h; series mostly up to 28.7 µM
In all, about 4,100 compounds went through this assay and about 1,600 (39%) were called active. Inconclusive results (about 25%) are left out. Calls come from the whole dose curve; as a rule, active = well fitted inhibition curve with a large enough effect; inconclusive = small, poorly fitted or top-dose-only effect; inactive = no such curve, though single readings can be large or run the other way. This is one part of the list.
Hello, when you answer, please use one of the following outcomes: true (1) (active), false (0) (inactive)

Q. Hi team, can someone confirm the assay call for COc1cccc(-c2c(C#N)c(N)nc3c2c(C)nn3-c2ccccc2)c1O ?
A. true (1)

Q. Hi team, can someone confirm the assay call for COc1cc(NC(=O)Cn2c(=O)n(CC3CCC(C(=O)NCCc4ccccc4)CC3)c(=O)c3ccccc32)cc(OC)c1 (stereo not given) ?
A. true (1)

Q. Hi team, can someone confirm the assay call for O=C(c1cccs1)N1CCCCCC1CN1CCCC1 (stereo not given) ?
A. true (1)

Q. Hi team, can someone confirm the assay call for COc1ccc(Cl)cc1NC(=O)c1cc(C)nc2c1c(C)nn2-c1ccccc1 ?
A. false (0)

Q. Hi team, can someone confirm the assay call for COc1ccc(S(=O)(=O)N2CCc3cc(OC)c(OC)cc3C2)cc1 ?
A. false (0)
